Catalogue of GI50 readings, one per entry.
System: A375P cell line (melanoma)
Assay: Proliferation inhibition activity against A375P cell line (MTT assay)
Type: cell-based
Settings: A375P melanoma cells, MTT assay; read-out: A375P (GI50)

Sample answers from the record:
O=C1CC(c2cccc(NC(=O)c3ccc(Cl)c(C(F)(F)F)c3)c2)=Nc2cscc2N1 :: 1 to 10 µM
O=C1CC(c2ccc(NC(=O)c3ccc(Cl)cc3)cc2)=Nc2cscc2N1 :: 10 to 30 µM
CCN1CCN(Cc2ccc(NC(=O)Nc3cccc(C4=Nc5cscc5NC(=O)C4)c3)cc2C(F)(F)F)CC1 :: < 1 µM
O=C1CC(c2ccc(NC(=O)Nc3cccc(Cl)c3)cc2)=Nc2cscc2N1 :: 10 to 30 µM
O=C1CC(c2cccc(NC(=O)Nc3ccc(Cl)c(C(F)(F)F)c3)c2)=Nc2cscc2N1 :: 1 to 10 µM
CC(=O)N1CCC(C(=O)Nc2cccc(C3=Nc4cscc4NC(=O)C3)c2)CC1 :: 10 to 30 µM
Cc1c(C)c2c(c(C)c1O)CC[C@](C)(C(=O)Nc1cccc(C3=Nc4cscc4NC(=O)C3)c1)O2 :: 10 to 30 µM
Cc1cc(C)cc(C(=O)Nc2cccc(C3=Nc4cscc4NC(=O)C3)c2)c1 :: 10 to 30 µM

Give the measured GI50 of Cc1cc(C)cc(C(=O)Nc2ccc(C3=Nc4cscc4NC(=O)C3)cc2)c1 . 10 to 30 µM

Can you check O=C1CC(c2cccc(NC(=O)c3ccc(N4CCOCC4)c(C(F)(F)F)c3)c2)=Nc2cscc2N1 next? 1 to 10 µM

Can you check O=C1CC(c2ccc(NC(=O)Nc3ccc(Cl)c(C(F)(F)F)c3)cc2)=Nc2cscc2N1 next? < 1 µM

Can you check O=C1CC(c2ccc(NC(=O)c3ccc(Cl)c(C(F)(F)F)c3)cc2)=Nc2cscc2N1 next? 1 to 10 µM

Can you check O=C1CC(c2cccc(NC(=O)c3cnn(-c4ccccc4)c3C(F)(F)F)c2)=Nc2cscc2N1 next? 10 to 30 µM

---

System: A375P cell line (melanoma)
Assay: Proliferation inhibition activity against A375P cell line (MTT assay)
Format: cell-based
Conditions: A375P melanoma cells, MTT assay; read-out: A375P (GI50)
Readout label: GI50

Sample answers from the record:
O=C1CC(c2ccc(NC(=O)Nc3ccccc3F)cc2)=Nc2cscc2N1 :: 10 to 30 µM
O=C1CC(c2ccc(NC(=O)c3cnn(-c4ccccc4)c3C(F)(F)F)cc2)=Nc2cscc2N1 :: 1 to 10 µM
O=C1CC(c2cccc(NC(=O)Nc3ccc(Cl)c(Cl)c3)c2)=Nc2cscc2N1 :: 1 to 10 µM
O=C1CC(c2cccc(NC(=O)Nc3cc(Cl)cc(Cl)c3)c2)=Nc2cscc2N1 :: 10 to 30 µM

Give the measured GI50 of O=C1CC(c2ccc(NC(=O)Nc3cc(Cl)cc(Cl)c3)cc2)=Nc2cscc2N1 . < 1 µM

Can you check O=C(Cc1ccccc1F)Nc1cccc(C2=Nc3cscc3NC(=O)C2)c1 next? 10 to 30 µM

Can you check O=C(Cc1ccc(-c2ccccc2)cc1)Nc1cccc(C2=Nc3cscc3NC(=O)C2)c1 next? 10 to 30 µM
